Items are presented alongside their recorded half-life.
- Test name: Pharmacokinetics of Compounds 27, 16, 14 and 22 in SD rats
- Assay type: in vivo
- Details: Sprague-Dawley, rat, in vivo, IV, dose 1 (mg/kg)
Numeric only. Scale: min

Below, each entry is followed by its recorded half-life result.
Nc1nc(NCCc2ccc(OCCN3CC[C@H](F)C3)cc2)nc2nc(-c3ccco3)nn12	36.6
COCCNc1ccc(CCNc2nc(N)n3nc(-c4ccco4)nc3n2)cc1	30.6

For the compound shown here, Nc1nc(NCCc2ccc(OCCN3CCC(F)(F)C3)cc2)nc2nc(-c3ccco3)nn12 , give the reported half-life.
26.4

Same read-out for Nc1nc(NCCc2ccc(NC3COC3)cc2)nc2nc(-c3ccco3)nn12 ?
60

---

- Test name: Pharmacokinetics of acetate of Compound 22 in SD rats with single and repeated administration
- Format: in vivo
- Details: both sexes, Sprague-Dawley, rat, plasma, po, 63 mg/kg, Group 5 PO 63 mg/kg repeated, Day 7, Overall, read-out: Cmax
Readout kind: Cmax (ng/mL)
Numeric only. Scale: ng/mL

For the compound shown here, CC(=O)O.Nc1nc(NCCc2ccc(NC3COC3)cc2)nc2nc(-c3ccco3)nn12 [Acetate of Compound 22] , give the reported Cmax.
38300

---

- Test name: Pharmacokinetics of Compounds 27, 40, 22 and 41 in ICR mice in different modes of administration
- Type: in vivo
- Details: PO, 5 mg/kg
Readout kind: F (%)
Numeric only. Scale: %

Below, each entry is followed by its recorded F result.
CCn1nnc(-c2ccc(CCNc3nc(N)n4nc(-c5ccco5)nc4n3)cc2)n1	32.51
Nc1nc(NCCc2ccc(NC3COC3)cc2)nc2nc(-c3ccco3)nn12	85.72

For the compound shown here, Cn1nnc(-c2ccc(CCNc3nc(N)n4nc(-c5ccco5)nc4n3)cc2)n1 , give the reported F.
71.99

Same read-out for COCCNc1ccc(CCNc2nc(N)n3nc(-c4ccco4)nc3n2)cc1 ?
125.29

---

- Test name: Pharmacokinetics of acetate of Compound 22 in SD rats with single and repeated administration
- Type: in vivo
- Details: both sexes, Sprague-Dawley, rat, plasma, iv, 2 mg/kg, Group 1 IV 2.0 mg/kg single, Overall, read-out: T1/2 (converted)
Readout kind: half-life (h)
Numeric only. Scale: h

For the compound shown here, CC(=O)O.Nc1nc(NCCc2ccc(NC3COC3)cc2)nc2nc(-c3ccco3)nn12 [Acetate of Compound 22] , give the reported half-life.
3.39

---

- Test name: Pharmacokinetics of test compounds in SD rats (15.2; IV and PO, mixed administration)
- Assay type: in vivo
- Details: male, Sprague-Dawley, rat, plasma, IV, 1 mg/kg
Items are presented alongside their recorded AUC(0-t).
Numeric only. Scale: ng·h/mL

For the molecule shown here, Cn1nnc(-c2ccc(CCNc3nc(N)n4nc(-c5ccco5)nc4n3)cc2)n1 [Compound 40] , give the reported AUC(0-t).
1410

Same read-out for COCCNc1ccc(CCNc2nc(N)n3nc(-c4ccco4)nc3n2)cc1 [Compound 27] ?
83.8

---

- Test name: Pharmacokinetics of acetate of Compound 22 in SD rats with single and repeated administration
- Assay type: in vivo
- Details: Sprague-Dawley (SD), rat, plasma, iv, 2 mg/kg, intravenous injection 2.0 mg/kg, read-out: half-life T1/2 (converted)
Readout kind: half-life (h)
Numeric only. Scale: h

For the compound shown here, CC(=O)O.Nc1nc(NCCc2ccc(NC3COC3)cc2)nc2nc(-c3ccco3)nn12 [Acetate of Compound 22] , give the reported half-life.
3.39

All values here come from patent US20230048888A1.
